Activity values, listed per item
Test system: Staphylococcus aureus
Assay: Inhibition of Staphylococcus aureus MurF using D-Ala-D-Ala/UMtri-L-Lys as substrate assessed as residual activity at 100 uM after 15 mins by Malachite green method
Just the number please, in %, no unit attached.

Guide cases for Activity, answers given:
The recorded Activity for N#Cc1c(NC(=O)c2cc(S(=O)(=O)N3CCOCC3)c(Cl)cc2Cl)sc2c1CCN(Cc1cc(O)ccc1O)C2 is 79

The recorded Activity for N#Cc1c(NC(=O)c2cc(S(=O)(=O)N3CCSCC3)c(Cl)cc2Cl)sc2c1CCCC2 is 95

The recorded Activity for N#Cc1c(NC(=O)c2cc(S(=O)(=O)N3CCOCC3)c(Cl)cc2Cl)sc2c1CCN(CCC1CCNCC1)C2.O=C(O)C(F)(F)F is 84

The recorded Activity for N#Cc1c(NC(=O)c2cc(S(=O)(=O)N3CCNC(=O)C3)c(Cl)cc2Cl)sc2c1CCCC2 is 95

The recorded Activity for N#Cc1c(NC(=O)c2cc(S(=O)(=O)N3CCOCC3)c(Cl)cc2Cl)sc2c1CCN(c1ccc([N+](=O)[O-])cc1)C2 is 83

The recorded Activity for CC1CCCCN1S(=O)(=O)c1cc(C(=O)Nc2sc3c(c2C#N)CCCC3)c(Cl)cc1Cl (centres undefined) is 103

The recorded Activity for N#Cc1c(NC(=O)c2cc(S(=O)(=O)N3CCC(=O)CC3)c(Cl)cc2Cl)sc2c1CCCC2 is 103

The recorded Activity for N#Cc1c(NC(=O)c2cc(S(=O)(=O)N3CCOCC3)c(Cl)cc2Cl)sc2c1CCN(Cc1ccc(O)cc1)C2 is 84

Others:
The recorded Activity for N#Cc1c(NC(=O)c2cc(S(=O)(=O)N3CCC(O)CC3)c(Cl)cc2Cl)sc2c1CCCC2 is 101

The recorded Activity for N#Cc1c(NC(=O)c2cc(S(=O)(=O)N3CCOCC3)c(Cl)cc2Cl)sc2c1CCN(C(=O)c1ccccc1)C2 is 107

The recorded Activity for CC(=O)Oc1ccc(C2CCc3c(sc(NC(=O)c4cc(S(=O)(=O)N5CCOCC5)c(Cl)cc4Cl)c3C#N)C2)cc1 (centres undefined) is 103

The recorded Activity for COc1cc(CN2CCc3c(sc(NC(=O)c4cc(S(=O)(=O)N5CCOCC5)c(Cl)cc4Cl)c3C#N)C2)ccc1O is 64

The recorded Activity for CCOC(=O)c1ccc(N2CCc3c(sc(NC(=O)c4cc(S(=O)(=O)N5CCOCC5)c(Cl)cc4Cl)c3C#N)C2)cc1 is 79

The recorded Activity for CCOC(=O)C1CCN(S(=O)(=O)c2cc(C(=O)Nc3sc4c(c3C#N)CCCC4)c(Cl)cc2Cl)CC1 is 100

----------
Activity values, listed per item
Test system: Escherichia coli
Assay: Inhibition of Escherichia coli MurF using D-Ala-D-Ala/UMtri-mDAP as substrate assessed as residual activity at 100 uM after 15 mins by Malachite green method
Just the number please, in %, no unit attached.

Guide cases for Activity, answers given:
The recorded Activity for N#Cc1c(NC(=O)c2cc(S(=O)(=O)N3CCC(C(=O)O)CC3)c(Cl)cc2Cl)sc2c1CCCC2 is 102

The recorded Activity for N#Cc1c(NC(=O)c2cc(S(=O)(=O)N3CCOCC3)c(Cl)cc2Cl)sc2c1CCN(Cc1ccc(O)cc1)C2 is 68

The recorded Activity for N#Cc1c(NC(=O)c2cc(S(=O)(=O)N3CCOCC3)c(Cl)cc2Cl)sc2c1CCN(c1ccc([N+](=O)[O-])cc1)C2 is 74

Others:
The recorded Activity for Cl.N#Cc1c(NC(=O)c2cc(S(=O)(=O)N3CCOCC3)c(Cl)cc2Cl)sc2c1CCNC2 is 94

----------
Test system: Escherichia coli
Assay: Inhibition of Escherichia coli MurF using D-Ala-D-Ala/UMtri-mDAP as substrate assessed as residual activity at 100 uM after 15 mins by Malachite green method
Activity values, listed per item
Just the number please, in %, no unit attached.

The recorded Activity for N#Cc1c(NC(=O)c2cc(S(=O)(=O)N3CCOCC3)c(Cl)cc2Cl)sc2c1CCN(CCC1CCNCC1)C2.O=C(O)C(F)(F)F is 93

The recorded Activity for N#Cc1c(NC(=O)c2cc(S(=O)(=O)N3CCOCC3)c(Cl)cc2Cl)sc2c1CCN(Cc1ccc(O)c(O)c1)C2 is 78

----------
System: Escherichia coli
Assay: Inhibition of Escherichia coli MurF using D-Ala-D-Ala/UMtri-mDAP as substrate assessed as residual activity at 100 uM after 15 mins by Malachite green method
Returns rule met if the recorded Activity is greater than or equal to 90%, and rule not met otherwise.

Q. Threshold query (Activity >= 90%) on N#Cc1c(NC(=O)c2cc(S(=O)(=O)N3CCOCC3)c(Cl)cc2Cl)sc2c1CCN(C(=O)c1ccccc1)C2
A. rule met

Others:
Q. Threshold query (Activity >= 90%) on CCOC(=O)C1CCN(S(=O)(=O)c2cc(C(=O)Nc3sc4c(c3C#N)CCCC4)c(Cl)cc2Cl)CC1
A. rule met

Q. Threshold query (Activity >= 90%) on N#Cc1c(NC(=O)c2cc(S(=O)(=O)N3CCOCC3)c(Cl)cc2Cl)sc2c1CCN(Cc1cc(O)ccc1O)C2
A. rule not met

Q. Threshold query (Activity >= 90%) on N#Cc1c(NC(=O)c2cc(S(=O)(=O)N3CCOCC3)c(Cl)cc2Cl)sc2c1CCN(CC1CCCCC1)C2
A. rule not met

----------
Test: Inhibition of Staphylococcus aureus MurF using D-Ala-D-Ala/UMtri-L-Lys as substrate after 15 mins by Malachite green method
measured.metric: IC50 (µM)
Just the number please, in µM, no unit attached.

Guide cases for IC50, answers given:
The recorded IC50 for N#Cc1cccc(CN2CCc3c(sc(NC(=O)c4cc(S(=O)(=O)N5CCOCC5)c(Cl)cc4Cl)c3C#N)C2)c1 is 90

The recorded IC50 for N#Cc1c(NC(=O)c2cc(S(=O)(=O)N3CCOCC3)c(Cl)cc2Cl)sc2c1CCN(Cc1cccc(C(=O)O)c1)C2 is 118

Others:
The recorded IC50 for N#Cc1c(NC(=O)c2cc(S(=O)(=O)N3CCOCC3)c(Cl)cc2Cl)sc2c1CCN(Cc1ccc(O)c(C(=O)O)c1)C2 is 132

The recorded IC50 for COc1ccc(CN2CCc3c(sc(NC(=O)c4cc(S(=O)(=O)N5CCOCC5)c(Cl)cc4Cl)c3C#N)C2)cc1 is 95

----------
Tested on: Escherichia coli
Test: Inhibition of Escherichia coli MurF using D-Ala-D-Ala/UMtri-mDAP as substrate assessed as residual activity at 100 uM after 15 mins by Malachite green method
measured.metric: Activity (%)
Just the number please, in %, no unit attached.

Guide cases for Activity, answers given:
The recorded Activity for N#Cc1c(NC(=O)c2cc(S(=O)(=O)N3CCC(O)CC3)c(Cl)cc2Cl)sc2c1CCCC2 is 104

The recorded Activity for COc1ccc(C2CCc3c(sc(NC(=O)c4cc(S(=O)(=O)N5CCOCC5)c(Cl)cc4Cl)c3C#N)C2)cc1 (centres undefined) is 90

The recorded Activity for CC1CCCCN1S(=O)(=O)c1cc(C(=O)Nc2sc3c(c2C#N)CCCC3)c(Cl)cc1Cl (centres undefined) is 107

Others:
The recorded Activity for N#Cc1c(NC(=O)c2cc(S(=O)(=O)N3CCC(=O)CC3)c(Cl)cc2Cl)sc2c1CCCC2 is 102

----------
Tested on: Escherichia coli
Experiment: Inhibition of Escherichia coli MurF using D-Ala-D-Ala/UMtri-mDAP as substrate assessed as residual activity at 100 uM after 15 mins by Malachite green method
Activity values, listed per item
Just the number please, in %, no unit attached.

The recorded Activity for CC(=O)Oc1ccc(C2CCc3c(sc(NC(=O)c4cc(S(=O)(=O)N5CCOCC5)c(Cl)cc4Cl)c3C#N)C2)cc1 (centres undefined) is 91

Others:
The recorded Activity for N#Cc1ccc(N2CCc3c(sc(NC(=O)c4cc(S(=O)(=O)N5CCOCC5)c(Cl)cc4Cl)c3C#N)C2)cc1 is 95

The recorded Activity for CC(C)(C)OC(=O)N1CCc2c(sc(NC(=O)c3cc(S(=O)(=O)N4CCOCC4)c(Cl)cc3Cl)c2C#N)C1 is 88

The recorded Activity for N#Cc1c(NC(=O)c2cc(S(=O)(=O)N3CCSC3)c(Cl)cc2Cl)sc2c1CCCC2 is 104

----------
Assay: Inhibition of Staphylococcus aureus MurF using D-Ala-D-Ala/UMtri-L-Lys as substrate after 15 mins by Malachite green method
pIC50 values, listed per item
The quantity pIC50 is defined as the negative base-10 logarithm of the molar concentration.

The recorded pIC50 for COC(=O)c1ccc(CN2CCc3c(sc(NC(=O)c4cc(S(=O)(=O)N5CCOCC5)c(Cl)cc4Cl)c3C#N)C2)cc1 is 4.06

The recorded pIC50 for CC(=O)Oc1ccc(CN2CCc3c(sc(NC(=O)c4cc(S(=O)(=O)N5CCOCC5)c(Cl)cc4Cl)c3C#N)C2)cc1OC(C)=O is 4.05

The recorded pIC50 for N#Cc1ccc(CN2CCc3c(sc(NC(=O)c4cc(S(=O)(=O)N5CCOCC5)c(Cl)cc4Cl)c3C#N)C2)c(F)c1 is 4.04

The recorded pIC50 for N#Cc1c(NC(=O)c2cc(S(=O)(=O)N3CCOCC3)c(Cl)cc2Cl)sc2c1CCN(Cc1ccc(C(=O)O)cc1)C2 is 3.96

The recorded pIC50 for N#Cc1c(NC(=O)c2cc(S(=O)(=O)N3CCOCC3)c(Cl)cc2Cl)sc2c1CCN(Cc1cccc(O)c1)C2 is 4.04

The recorded pIC50 for N#Cc1c(NC(=O)c2cc(S(=O)(=O)N3CCOCC3)c(Cl)cc2Cl)sc2c1CCN(Cc1ccc(F)cc1)C2 is 4.10

The recorded pIC50 for COc1ccc(CN2CCc3c(sc(NC(=O)c4cc(S(=O)(=O)N5CCOCC5)c(Cl)cc4Cl)c3C#N)C2)cc1OC is 4.18

The recorded pIC50 for N#Cc1c(NC(=O)c2cc(S(=O)(=O)N3CCOCC3)c(Cl)cc2Cl)sc2c1CCN(Cc1ccccc1)C2 is 4.10

Others:
The recorded pIC50 for N#Cc1ccc(CN2CCc3c(sc(NC(=O)c4cc(S(=O)(=O)N5CCOCC5)c(Cl)cc4Cl)c3C#N)C2)cc1 is 4.10

The recorded pIC50 for N#Cc1c(NC(=O)c2cc(S(=O)(=O)N3CCOCC3)c(Cl)cc2Cl)sc2c1CCN(Cc1ccc3c(c1)OCO3)C2 is 3.96
